- MEASUREMENT_TARGET: Luciferin 4-monooxygenase (Photinus pyralis)
- Sequence (P08659 whole entry): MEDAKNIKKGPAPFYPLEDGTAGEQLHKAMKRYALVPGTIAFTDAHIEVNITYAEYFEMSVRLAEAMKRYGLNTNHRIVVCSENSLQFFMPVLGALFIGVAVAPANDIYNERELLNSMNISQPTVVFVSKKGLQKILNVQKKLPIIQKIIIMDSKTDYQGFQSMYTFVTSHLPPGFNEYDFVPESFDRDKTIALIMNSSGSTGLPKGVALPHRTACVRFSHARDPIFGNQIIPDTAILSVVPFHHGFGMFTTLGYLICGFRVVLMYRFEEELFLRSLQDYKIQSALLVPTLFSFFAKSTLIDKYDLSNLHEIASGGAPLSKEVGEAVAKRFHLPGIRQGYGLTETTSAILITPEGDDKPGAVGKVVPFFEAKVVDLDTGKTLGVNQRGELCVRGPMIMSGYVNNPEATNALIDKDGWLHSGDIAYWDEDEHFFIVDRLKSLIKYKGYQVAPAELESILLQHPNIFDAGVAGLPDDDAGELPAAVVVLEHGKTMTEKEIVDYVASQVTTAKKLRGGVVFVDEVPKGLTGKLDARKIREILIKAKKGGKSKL
- ASSAY_INFO: firefly luciferase enzyme inhibitors, dose response, biochemical, luminescence (AID 1891)
Calls of active or inactive are those of the source. No stated cut-off is given here; in the data, actives have a measured EC50 and inactives only a lower limit.
REPORTED_ENDPOINT: EC50

Here are 5 compounds together with their reported answers.
[
  {
    "COMPOUND": "CSc1ccc(/C=N/NC(=O)c2cccc(O)c2)cc1",
    "MEASUREMENT_TARGET": "Luciferin 4-monooxygenase (Photinus pyralis)",
    "RECORDED_MEASUREMENT": "0.619 µM (active)"
  },
  {
    "COMPOUND": "O=C(C=C=Nc1ccccc1)C(=O)N=C=Cc1ccccc1",
    "MEASUREMENT_TARGET": "Luciferin 4-monooxygenase (Photinus pyralis)",
    "RECORDED_MEASUREMENT": "> 112 µM (not active)"
  },
  {
    "COMPOUND": "COc1ccc(C(=O)C(CCC(CNC(C)(C)C)C(=O)c2ccc(OC)cc2)CNC(C)(C)C)cc1 (stereo not given)",
    "MEASUREMENT_TARGET": "Luciferin 4-monooxygenase (Photinus pyralis)",
    "RECORDED_MEASUREMENT": "> 112 µM (not active)"
  },
  {
    "COMPOUND": "COc1cc(OC)c(NC(=O)c2cc(S(=O)(=O)N3CCOCC3)cn2C)cc1Cl",
    "MEASUREMENT_TARGET": "Luciferin 4-monooxygenase (Photinus pyralis)",
    "RECORDED_MEASUREMENT": "> 112 µM (not active)"
  },
  {
    "COMPOUND": "Cc1ccc(NS(=O)(=O)c2cccc(C(=O)N3CCCCCC3)c2)cc1",
    "MEASUREMENT_TARGET": "Luciferin 4-monooxygenase (Photinus pyralis)",
    "RECORDED_MEASUREMENT": "> 112 µM (not active)"
  }
]

[ask] Which EC50 value belongs to COC(=O)c1cccc(NC(=O)Nc2ccc(Cl)cc2Cl)c1 ?
[reply] > 112 µM (not active)

[ask] Which EC50 value belongs to CCOc1ccc(N2CC(C(=O)NCCc3ccc(OC)c(OC)c3)CC2=O)cc1 (stereo not given) ?
[reply] > 112 µM (not active)

[ask] Which EC50 value belongs to Clc1ccccc1Nc1nnc(-c2ccncc2)s1 ?
[reply] 0.799 µM (active)

[ask] Which EC50 value belongs to CC(=O)Nc1cccc(N2C(=O)CC(Cc3ccccc3)C2=O)c1 (stereo not given) ?
[reply] > 112 µM (not active)

[ask] Which EC50 value belongs to COc1ccc(CNc2ccc(-c3ccc(OC)cc3)nn2)cc1 ?
[reply] > 112 µM (not active)
